Overview of reported koff across a group of binders:
assay.system: T1, human GREM1 (hGREM1-His; SEQ ID NO: 595) (human, UniProt O60565 25-184)
T1 construct: also called biotin-hGREM1-His; recombinant human GREM1 protein
T1 sequence: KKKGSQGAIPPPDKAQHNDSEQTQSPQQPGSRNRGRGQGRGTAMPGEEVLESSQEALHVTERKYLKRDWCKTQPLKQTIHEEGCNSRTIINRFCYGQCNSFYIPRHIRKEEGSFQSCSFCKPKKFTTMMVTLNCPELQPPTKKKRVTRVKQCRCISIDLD
protocol.description: SPR, Biacore T200, 37 C, mAb captured, hGREM1-His injected;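 further: HBS-EP running buffer containing heparin, association and dissociation phases tracked, KD computed as koff over kon and half-life derived from koff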

| binder | koff, s⁻¹ |
| --- | --- |
| H4H2895N (antibody, human IgG4, V domains shown, H4H prefix = human IgG4 Fc) VH: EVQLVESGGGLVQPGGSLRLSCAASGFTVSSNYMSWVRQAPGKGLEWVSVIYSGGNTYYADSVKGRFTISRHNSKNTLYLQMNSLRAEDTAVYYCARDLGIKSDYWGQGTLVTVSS VL: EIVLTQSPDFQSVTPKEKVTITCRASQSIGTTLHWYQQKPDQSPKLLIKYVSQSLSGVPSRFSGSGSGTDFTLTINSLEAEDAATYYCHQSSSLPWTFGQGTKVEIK | 0.000215 |
| H4H6270P (antibody, human IgG4, V domains shown, H4H prefix = human IgG4 Fc) VH: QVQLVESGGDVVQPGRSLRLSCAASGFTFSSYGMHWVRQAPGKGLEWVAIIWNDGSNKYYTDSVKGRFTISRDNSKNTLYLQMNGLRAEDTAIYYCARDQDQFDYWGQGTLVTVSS VL: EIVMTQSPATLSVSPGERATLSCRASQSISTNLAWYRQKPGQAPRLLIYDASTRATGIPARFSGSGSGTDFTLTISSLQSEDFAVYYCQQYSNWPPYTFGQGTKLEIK | 0.00065 |
| H4H6232P (antibody, human IgG4, V domains shown, H4H prefix = human IgG4 Fc) VH: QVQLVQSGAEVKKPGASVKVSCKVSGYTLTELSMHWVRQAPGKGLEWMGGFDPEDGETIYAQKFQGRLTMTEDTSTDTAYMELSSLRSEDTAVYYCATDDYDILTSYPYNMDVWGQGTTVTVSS VL: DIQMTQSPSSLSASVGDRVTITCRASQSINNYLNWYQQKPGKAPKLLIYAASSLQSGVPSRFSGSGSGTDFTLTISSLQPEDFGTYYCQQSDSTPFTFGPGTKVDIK | 0.000195 |
| H4H6233P (antibody, human IgG4, V domains shown, H4H prefix = human IgG4 Fc) VH: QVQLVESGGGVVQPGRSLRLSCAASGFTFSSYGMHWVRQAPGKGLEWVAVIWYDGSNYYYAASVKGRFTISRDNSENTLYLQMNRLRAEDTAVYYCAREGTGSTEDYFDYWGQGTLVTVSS VL: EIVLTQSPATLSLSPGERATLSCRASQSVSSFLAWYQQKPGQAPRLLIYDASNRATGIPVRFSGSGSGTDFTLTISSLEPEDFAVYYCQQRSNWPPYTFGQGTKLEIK | 0.000512 |
| H4H6250P (antibody, human IgG4, V domains shown, H4H prefix = human IgG4 Fc) VH: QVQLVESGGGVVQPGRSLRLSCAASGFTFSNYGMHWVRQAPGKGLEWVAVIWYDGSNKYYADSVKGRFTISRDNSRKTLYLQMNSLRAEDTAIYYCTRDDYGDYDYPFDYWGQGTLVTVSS VL: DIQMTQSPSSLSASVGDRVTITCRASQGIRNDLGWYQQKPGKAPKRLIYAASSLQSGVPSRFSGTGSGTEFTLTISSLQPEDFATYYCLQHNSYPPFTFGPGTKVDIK | 0.000882 |
